- Read-out: BCL2L11 (gene 10018)
- method.summary: LTEA_HepaRG_BCL2L11: Life Technologies and Expression Analysis (LTEA) Assay for Bcl-2 (BCL2L11) gene using HepaRG (AID 2283473)
- measurement.setup: mRNA level, 48 h; actives raise or lower the signal
The source made the active and inactive calls. The calls were made as follows: active = hit-call score of the fitted dose curve at least 0.9, where 1 is the maximum; inactive = score below 0.9.
Outcome codes: active, inactive

compound: S=C1NCCN1
class.name: inactive
//
compound: Nc1nc(N)nc(NC2CC2)n1
class.name: inactive
//
compound: CCOP(=O)(OCC)Oc1cc(C)nc(C(C)C)n1
class.name: inactive
//
compound: CN(C)NC(=O)CCC(=O)O
class.name: inactive
//
compound: Nc1c(Cl)cc([N+](=O)[O-])cc1Cl
class.name: active
//
compound: CN(C)C(=O)Nc1cccc(C(F)(F)F)c1
class.name: active
//
compound: CCOP(=O)(NC(C)C)Oc1ccc(SC)c(C)c1 (configuration not stated)
class.name: inactive
//
compound: CN(C)[C@@H]1C(=O)C(C(N)=O)=C(O)[C@@]2(O)C(=O)C3=C(O)c4c(O)cccc4[C@@](C)(O)[C@H]3[C@H](O)[C@@H]12
class.name: inactive
//
compound: CCCSP(=O)(OCC)Oc1ccc(Br)cc1Cl (configuration not stated)
class.name: inactive
//
compound: CN1COCN(Cc2cnc(Cl)s2)C1=N[N+](=O)[O-]
class.name: inactive
//
compound: COP(=O)(OC)SCn1c(=O)oc2cc(Cl)cnc21
class.name: active
//
compound: CC1(C(=O)Nc2ccc(O)c(Cl)c2Cl)CCCCC1
class.name: inactive
